# System: V-C8 + BRCA2 (BRCA2-proficient hamster cells)
# Assay remarks: normalised cell viability (fraction of plate median); higher = more viable cells (less toxic)
# Assay conditions: treatment time: 3 days; 5 µM
Where a name gives a salt, the structure may show the parent alone. In all, about 1,300 compounds were measured (“normalised cell viability”: median about 1, lowest 2% from about 0.15 on). The full list was thinned out, with the lowest values kept by preference.
Lab note: compare normalised cell viability with 1, writing true if less and false if equal or more.

// below: answered compounds
{"columns": ["Compound", "Experimental system", "Answer label"],
 "data": [
  ["CN(Cc1ccc(C(C)(C)C)cc1)Cc1cccc2ccccc12 [Butenafine Hydrochloride]", "V-C8 + BRCA2 (BRCA2-proficient hamster cells)", "false"],
  ["NC(=O)c1cnccn1 [Pyrazinamide]", "V-C8 + BRCA2 (BRCA2-proficient hamster cells)", "false"],
  ["O=C1C(O)=C([C@H]2CC[C@H](c3ccc(Cl)cc3)CC2)C(=O)c2ccccc21", "V-C8 + BRCA2 (BRCA2-proficient hamster cells)", "true"]
]}

Now for another entry.
Hello, is normalised cell viability of the following compound strictly smaller than 1? `Nc1ccc(C(=O)O)c(O)c1`
true
